Data origin, for the record: patent US10150737B2

assay: logP determination by HPLC on a reversed-phase column (C18); type: physicochemical; conditions: HPLC-MS method a), reversed-phase column (C18); Table I-T3
endpoint: logP^a)
Just the number.

Query block: I am curious: what logP^a) value has been reported for Cc1cc(C(F)(C(F)(F)F)C(F)(F)F)cc(C)c1-n1cc(-c2ccc(Cl)c(C(=O)NC3(C#N)CC3)c2F)cn1 [I-T3-65] ?
Result block: 4.3

Query block: // same read-out, input: N#CC1(NC(=O)c2cc(-c3cnn(-c4ncc(C(F)(F)F)cc4Cl)c3)ccc2Cl)CC1 [I-T3-59]
Result block: 3.1

Query block: // same read-out, input: CCc1cc(C(F)(C(F)(F)F)C(F)(F)F)ccc1-n1cc(-c2cccc(C(=O)NC3CC3)c2F)cn1 [I-T3-75]
Result block: 4.7

Query block: // same read-out, input: Cc1cc(C(F)(C(F)(F)F)C(F)(F)F)cc(Cl)c1-n1cc(-c2ccc(Cl)c(C(=O)NC3CC3)c2)cn1 [I-T3-63]
Result block: 4.4

Query block: // same read-out, input: Cc1cc(C(F)(C(F)(F)F)C(F)(F)F)cc(C)c1-n1cc(-c2ccc(Cl)c(C(=O)NC3CC3)c2)cn1 [I-T3-1]
Result block: 4.4

Query block: // same read-out, input: CCc1cc(C(F)(C(F)(F)F)C(F)(F)F)ccc1-n1cc(-c2ccc(Cl)c(C(=O)NC3CSC3)c2)cn1 [I-T3-41]
Result block: 4.9

Query block: // same read-out, input: Cc1cc(C(F)(C(F)(F)F)C(F)(F)F)cc(C)c1-n1cc(-c2cc(C(=O)NC3CC3)cc(C(F)(F)F)c2)cn1 [I-T3-15]
Result block: 4.9

Query block: // same read-out, input: CCc1cc(C(F)(C(F)(F)F)C(F)(F)F)ccc1-n1cc(-c2ccc(Cl)c(C(=O)NC3(C#N)CC3)c2)cn1 [I-T3-38]
Result block: 4.5

Query block: // same read-out, input: Cc1cc(C(F)(C(F)(F)F)C(F)(F)F)cc(C(F)(F)F)c1-n1cc(-c2ccc(Cl)c(C(=O)NC3CSC3)c2)cn1 [I-T3-85]
Result block: 4.7

Query block: // same read-out, input: Cc1cc(C(F)(C(F)(F)F)C(F)(F)F)cc(C)c1-n1cc(-c2cccc(C(=O)NC3CC3)c2F)cn1 [I-T3-9]
Result block: 4.3

Query block: // same read-out, input: Cc1cc(C(F)(C(F)(F)F)C(F)(F)F)cc(C)c1-n1cc(-c2cccc(C(=O)NC3(C#N)CC3)c2F)cn1 [I-T3-10]
Result block: 4.2

Query block: // same read-out, input: N#CC1(NC(=O)c2cc(-c3cnn(-c4c(F)cc(C(F)(F)F)cc4F)c3)ccc2Cl)CC1 [I-T3-49]
Result block: 3.2

Query block: // same read-out, input: CCc1cc(C(F)(C(F)(F)F)C(F)(F)F)cc(C)c1-n1cc(-c2ccc(Cl)c(C(=O)NC3CC3)c2)cn1 [I-T3-44]
Result block: 4.7

Query block: // same read-out, input: Cc1cc(C(F)(C(F)(F)F)C(F)(F)F)cc(C)c1-n1cc(-c2cnc(Cl)c(C(=O)NC3CC3)c2)cn1 [I-T3-20]
Result block: 3.8

Query block: // same read-out, input: Cc1cc(C(F)(C(F)(F)F)C(F)(F)F)cc(C(F)(F)F)c1-n1cc(-c2ccc(Cl)c(C(=O)NC3(C#N)CC3)c2)cn1 [I-T3-55]
Result block: 4.3

###

assay: logP determination by HPLC on a reversed-phase column (C18); type: physicochemical; details: HPLC, C18 reversed phase, acetonitrile/water with formic acid, EEC Directive 79/831 Annex V.A8
Record form. Attribute: logP. Fill in for each entry.
Just the number.

Query block: I am curious: what logP value has been reported for "Cc1cc(C(F)(C(F)(F)F)C(F)(F)F)cc(C(F)(F)F)c1-c1cc(-c2cnc(Cl)c(C(=O)NC3CC3)c2)on1" ?
Result block: 4.5

Query block: // same read-out, input: "Cc1cc(C(F)(C(F)(F)F)C(F)(F)F)cc(C(F)(F)F)c1-c1cc(-c2ccc(Cl)c(C(=O)NC3(C#N)CC3)c2)on1"
Result block: 4.7

Query block: // same read-out, input: "CN(C(=O)c1cc(-c2ccn(-c3c(Cl)cc(C(F)(C(F)(F)F)C(F)(F)F)cc3Cl)c2)cnc1Cl)C1CC1"
Result block: 5.0

Query block: // same read-out, input: "O=C(NC1CC1)c1cc(-c2cc(-c3c(Cl)cc(C(F)(C(F)(F)F)C(F)(F)F)cc3Cl)on2)ccc1Cl"
Result block: 5.0

Query block: // same read-out, input: "Cc1cc(C(F)(C(F)(F)F)C(F)(F)F)cc(C)c1-n1ccc(-c2ccc(Cl)c(C(=O)NC3(C#N)CC3)c2)c1"
Result block: 4.90

Query block: // same read-out, input: "N#CC1(NC(=O)c2cc(-c3ccn(-c4c(Cl)cc(C(F)(C(F)(F)F)C(F)(F)F)cc4Cl)c3)cnc2Cl)CC1"
Result block: 4.4

Query block: // same read-out, input: "Cc1cc(C(F)(C(F)(F)F)C(F)(F)F)cc(C(F)(F)F)c1-c1cc(-c2cnc(Cl)c(C(=O)NC3(C#N)CC3)c2)on1"
Result block: 4.4

###

system: Myzus persicae; test: Myzus persicae - spray test; type: in vivo; conditions: application rate 100 g/ha; Chinese cabbage leaf discs; after 6 days
Record form. Attribute: efficacy. Fill in for each entry.
Just the number in %, nothing appended.

Query block: I am curious: what efficacy value has been reported for "Cc1cc(C(F)(C(F)(F)F)C(F)(F)F)cc(C)c1-n1cc(-c2cnc(C)c(C(=O)NC3CC3)c2)cn1" ?
Result block: 90

Query block: // same read-out, input: "Cc1cc(C(F)(C(F)(F)F)C(F)(F)F)cc(C(F)(F)F)c1-c1cc(-c2ccc(Cl)c(C(=O)NC3CC3)c2)on1"
Result block: 100

Query block: // same read-out, input: "Cc1cc(C(F)(C(F)(F)F)C(F)(F)F)cc(I)c1-n1cc(-c2ccc(Cl)c(C(=O)NC3(C#N)CC3)c2)cn1"
Result block: 100

Query block: // same read-out, input: "CCSc1cc(C(F)(F)F)cc(Cl)c1-n1cc(-c2ccc(Cl)c(C(=O)NC3(C#N)CC3)c2)cn1"
Result block: 100

Query block: // same read-out, input: "CCc1cc(C(F)(C(F)(F)F)C(F)(F)F)ccc1-n1cc(-c2ccc(Cl)c(C(=O)NC3CC3)c2)cn1"
Result block: 90

Query block: // same read-out, input: "Cc1cc(C(F)(C(F)(F)F)C(F)(F)F)cc(C(F)(F)F)c1-n1cc(-c2cnc(C)c(C(=O)N(C)C3CC3)c2)cn1"
Result block: 100

Query block: // same read-out, input: "CCc1cc(C(F)(C(F)(F)F)C(F)(F)F)cc(C)c1-n1cc(-c2cncc(C(=O)NC3CC3)c2)cn1"
Result block: 100

Query block: // same read-out, input: "O=C(NC1CC1)c1cc(-c2cnn(-c3c(Cl)cc(C(F)(C(F)(F)F)C(F)(F)F)cc3OC(F)(F)F)c2)cnc1Cl"
Result block: 100

Query block: // same read-out, input: "Cc1ncc(-c2cnn(-c3c(Cl)cc(C(F)(F)F)cc3Cl)c2)cc1C(=O)N(C)C1CC1"
Result block: 100

Query block: // same read-out, input: "Cc1cc(C(F)(C(F)(F)F)C(F)(F)F)cc(C)c1-n1cc(-c2ccc(Cl)c(C(=O)NC3(C#N)CC3)c2)cn1"
Result block: 100

Query block: // same read-out, input: "CN(C(=O)c1cc(-c2cnn(-c3c(Cl)cc(C(F)(C(F)(F)F)C(F)(F)F)cc3C(F)(F)F)c2)cnc1Cl)C1(C#N)CC1"
Result block: 100

Query block: // same read-out, input: "Cc1ncc(-c2cnn(-c3c(Cl)cc(C(F)(C(F)(F)F)C(F)(F)F)cc3C(F)(F)F)c2)cc1C(=O)N(C)C1(C#N)CC1"
Result block: 90

Query block: // same read-out, input: "Cc1cc(C(F)(C(F)(F)F)C(F)(F)F)cc(C(F)(F)F)c1-c1cc(-c2ccc(Cl)c(C(=O)NC3(C#N)CC3)c2)on1"
Result block: 100

Query block: // same read-out, input: "Cc1cc(C(F)(C(F)(F)F)C(F)(F)F)cc(I)c1-n1cc(-c2ccc(Cl)c(C(=O)NC3CC3)c2)cn1"
Result block: 100

###

Record form. Attribute: logP^a). Fill in for each entry.
experiment: logP determination by HPLC on a reversed-phase column (C18); assay type: physicochemical; conditions: HPLC-MS method a)
Just the number.

Query block: I am curious: what logP^a) value has been reported for "Cc1cc(C(F)(C(F)(F)F)C(F)(F)F)cc(C)c1-n1cc(-c2ccc(Cl)c(C(=O)NC3CSC3)c2)cn1" ?
Result block: 4.7

Query block: // same read-out, input: "CCc1cc(C(F)(C(F)(F)F)C(F)(F)F)cc(C)c1-n1cc(-c2cccc(C(=O)NC3(C#N)CC3)c2F)cn1"
Result block: 4.3

Query block: // same read-out, input: "Cc1cc(C(F)(C(F)(F)F)C(F)(F)F)cc(C)c1-c1ccn(-c2ccc(Cl)c(C(=O)NC3(C#N)CC3)c2)n1"
Result block: 4.8

Query block: // same read-out, input: "Cc1cc(C(F)(C(F)(F)F)C(F)(F)F)cc(C)c1-n1cc(-c2cc(C(=O)NC3(C#N)CC3)c(F)cc2Cl)cn1"
Result block: 4.7
